Form field: TGI (one value per entry).
Test system: 786-0 renal
assay.text: NCI tumour cell line growth inhibition, 48 h

Inquiry: Identify measured TGI corresponding to CC(C)COP(C)(=O)C(N)(C(F)(F)F)C(F)(F)F (stereo not given)
Reply text: > 100 µM

Inquiry: Supply TGI value. Item: `Cn1c(=O)c2[nH]c(CCCc3ccc([N+](=O)[O-])cc3)nc2n(C)c1=O`
Reply text: > 100 µM

Inquiry: Please indicate TGI recorded for `COc1ccc(/C=C/C(=O)c2ccc(Nc3nc(Nc4ccc(F)cc4)nc(Nc4ccc(Cl)cc4)n3)cc2)cc1`
Reply text: > 100 µM

Inquiry: Determine from records and report TGI for O=C(c1ccccc1)C(Nc1ccc2ccccc2c1)c1ccccc1 (stereo not given)
Reply text: > 100 µM

Inquiry: Answer with the recorded TGI for the molecule listed here: O=C(Cc1ccccc1)NN1C(=O)C(Cl)C1c1cccc([N+](=O)[O-])c1 (stereo not given)
Reply text: > 84.4 µM

----------
Tested on: MDA-MB-435
assay.text: NCI tumour cell line growth inhibition, 48 h
measured.endpoint: TGI (µM)
Hi! Could you send only the number? It should be in µM, unit omitted.

Below, each entry is followed by its recorded TGI result.
In [3]: df
Out[3]:
                                   compound  measured_value
0  Brc1ccc(Nc2nc3ccccc3nc2Nc2ccc(Br)cc2)cc1             4.9
1     N#C/C(=C\c1ccc(F)cc1)n1nc2cccc(F)c2n1            4.62
2  COC(=O)c1ccc(C)cc1C1CN=NC12Cc1cc(C)ccc1C2=O (stereo not drawn)            6.12
3  C=C1C(=O)OC2CC1C(OC(C)=O)C/C(C)=C/CC/C(C)=C\CCC2(C)O (stereo not drawn)            18.6
4     CCCCN(CC)CCCCCCCCCCN1CCCc2cc(OC)ccc21            7.06
5            O=c1[nH]c2ccccc2n2cc3ccccc3c12              31
6  O=C(NCCc1ccccc1)c1cc(/C=C/c2cc(O)ccc2O)ccc1O            25.8
7  CCOc1cc(/C=C/C(=O)C(C(=O)/C=C/c2ccc(OC(=O)CNc3nnc(C)s3)c(OCC)c2)C(=O)CNc2nnc(C)s2)ccc1OC(=O)CNc1nnc(C)s1             8.7

Inquiry: Please supply the value of reported TGI for the item `COc1ncc(-c2ccc3nccc(C#CCN4CCN(S(C)(=O)=O)CC4)c3c2)cc1NS(=O)(=O)c1ccc(F)cc1F`
Reply text: 1.26

----------
System: SK-MEL-5 melanoma
assay.text: NCI tumour cell line growth inhibition, 48 h
measured.endpoint: TGI (µM)
Give the quantity in µM, number only.

>>> df
                                   compound  measured_endpoint  unit_spec  measured_value
0  Cc1cc(C(O)(c2ccc(Nc3ccccc3)cc2)c2ccc(Nc3ccc(S(=O)(=O)O)cc3)cc2)ccc1N (stereo not given)                TGI         µM            2.58

Inquiry: Annotate the compound `CC[C@@H]1CC[C@@H]2[C@H](CC[C@]3(C)[C@@H](OC(C)=O)CC[C@@H]23)[C@H]1C(=O)OC` with its measured TGI.
Reply text: 27.7

----------
Parameter: GI50. Scope: all listed entries.
Test system: OVCAR-4 ovarian
assay.text: NCI tumour cell line growth inhibition, 48 h

Some solved cases for reference:
compound	measured.value
O=C(NS(=O)(=O)c1ccc(NC[C@H]2COCCO2)c([N+](=O)[O-])c1)c1ccc(N2CCN(CC3=C(c4ccc(Cl)cc4)CC4(CCC4)CC3)CC2)cc1Oc1cnc2[nH]ccc2c1	2.47 µM
O=C(c1cccs1)c1nc2cc(Cl)ccc2[n+]([O-])c1C(F)(F)F	> 100 µM
NC(=O)CCc1ccccc1Oc1nccc(-c2c(-c3ccc(F)cc3)ncn2C2CCNCC2)n1	> 25 µM
CCC(C)CC(C)C(=O)c1c(O)ccn(O)c1=O (stereo not given)	0.561 µM

// below: GI50 requested for another compound
Inquiry: Tell me its GI50 on OVCAR-4 ovarian: `N#Cc1c2ccccc2c2nnc3ccccc3n12`
Reply text: > 100 µM

----------
System: ACHN renal
assay.text: NCI tumour cell line growth inhibition, 48 h
measured.endpoint: TGI

Past entries and their recorded results:
                                   compound  measured_value
0  C/C(=N\O)c1cccc(Nc2cc(-c3ccccc3)nc3c(O)cccc23)c1         22.5 µM
1  NCCCNc1nc2ccc(Cl)cc2c2c(=O)c3cc(F)ccc3sc12            4 µM
2  CCc1ccc(Nc2cc(=O)n(C)c(SCc3ccccc3)n2)cc1        > 100 µM
3  NC(=N\N=C/c1ccc(Cl)cc1Cl)/C(N)=N\N=C/c1ccc(Cl)cc1Cl         15.6 µM
4  C=CC(OC(=O)C(C)C)c1ccc(OC(=O)C(C)C)cc1 (centres undefined)           28 µM
5  O=C(Cc1ccccc1)N/N=C(/c1nc2ccc([N+](=O)[O-])cc2[nH]c1=O)C(O)c1ccccc1Cl (centres undefined)        > 100 µM
6  C/C(=C\CNc1ncnc2c1ncn2CCC(=O)OC(C)(C)C)CO        > 100 µM
7  COC(=O)[C@@H](C)C[C@H](Cc1ccccc1)NC(=O)c1csc([C@@H](C[C@H](C(C)C)N(C)C(=O)C2(NC(=O)[C@H]3CCCCN3C)CCC2)OC(C)=O)n1         > 25 µM
8      CCOC(=O)C1(C#N)C(C#N)(C#N)C1(C#N)C#N        > 100 µM
9  O=C(/C=C/c1ccc(O)c(O)c1)NC(COC(=O)/C=C/c1ccc(O)c(O)c1)C(=O)O (centres undefined)        > 100 µM

Proceeding to the next compound to report its TGI.
Inquiry: Query TGI for `COc1cc2cc3c4cc(OC)c(OC)cc4cc[n+]3c(C)c2cc1OC`
Reply text: > 100 µM

----------
Reported TGI by item:
System: OVCAR-4 ovarian
assay.text: NCI tumour cell line growth inhibition, 48 h

>>> df
                                   molecule  measured_value
0  CCCNCC(O)CNc1ccc(NCC(O)CNCCC)c2c1C(=O)c1ccccc1C2=O (stereo not given)         10.6 µM
1                    CC1(C)SCc2nc3ccccc3n21        > 100 µM
2  C#C[C@]1(O)[C@@H](CO)O[C@@H](n2ccc(N)nc2=O)[C@@H]1O         5.33 µM
3  O=C1CC(C(OCc2ccccc2)C(OCc2ccccc2)C(OCc2ccccc2)C(COCc2ccccc2)OCc2ccccc2)CC(=O)N1 (stereo not given)        > 100 µM
4  Fc1cccc(C2SCc3nc4cc5ccccc5cc4n32)c1 (stereo not given)        > 100 µM
5  O=C1Nc2ccccc2/C1=C\c1c(-c2ccccc2)nc2n1CCS2        > 100 µM
6  CCC1c2cc3n(c(=O)c2COC1O)Cc1c-3nc2ccccc2c1Cl (stereo not given)        > 100 µM
7  COCC12CCC(OC)C34C5CC6(O)C(OC)C=C(C5C6OC(=O)c5ccccc5)C(C(OC)C13)C4N(C)C2 (stereo not given)        > 100 µM
8  O=c1nc2c(c(-c3ccc(F)cc3)[nH]1)COC/C2=C\c1ccc(F)cc1        > 100 µM

Switching to the query record.
Inquiry: Report value: TGI, system: OVCAR-4 ovarian, molecule: Cc1ccc(NC(=O)/C(=N\NC(N)=S)C(C#N)c2ccccc2C)cc1C (stereo not given)
Reply text: > 100 µM

----------
Tested on: A498 renal
assay.text: NCI tumour cell line growth inhibition, 48 h
measured.endpoint: TGI

Worked examples, 4 molecules total:
molecule	TGI
CCCCCCCCCCCCCCCC(=O)Nc1ccn(C2CCC(COP(=O)(O)OCC3OC(n4cc(F)c(=O)[nH]c4=O)CC3OC(C)=O)O2)c(=O)n1 (centres undefined)	> 100 µM
CN(C)CCN(C)C(=O)C1CCCN1C(=O)OCc1ccccc1 (centres undefined)	> 100 µM
CCC(C)(C)[C@H](NC(=O)[C@H]1CCCCN1C)C(=O)N(C)[C@H](C[C@@H](OC(C)=O)c1nc(C(=O)N[C@@H](Cc2ccccc2)C[C@H](C)C(=O)O)cs1)C(C)C	0.0113 µM
O=C(/C=C/c1ccc(O)c(O)c1)NC(COC(=O)/C=C/c1ccc(O)c(O)c1)C(=O)O (centres undefined)	> 100 µM

Inquiry: Output measured TGI for this item: CCc1cccc(CC)c1NC(=O)CC1SC(N)=NC1=O (centres undefined)
Reply text: > 100 µM

Inquiry: Return TGI (reported value) for this molecule: O=C(Cc1ccccc1)N/N=C(/c1nc2ccc([N+](=O)[O-])cc2[nH]c1=O)C(O)c1ccc(C(O)/C(=N/NC(=O)Cc2ccccc2)c2nc3ccc([N+](=O)[O-])cc3[nH]c2=O)cc1 (centres undefined)
Reply text: > 100 µM

Inquiry: Hello, please tell me recorded TGI for this one: `C=CC(=O)NCNC(=O)C=C`
Reply text: > 100 µM

Inquiry: Supply reported TGI belonging to this molecule: `O=c1nc(N2CCCC2)nc(N2CCCC2)s1`
Reply text: > 100 µM

Inquiry: For the molecule `FC(F)(F)c1ccc(-c2ncc(-c3ccc(C(F)(F)F)cc3)c(NCc3cc(C(F)(F)F)cc(C(F)(F)F)c3)n2)cc1` , give its reported TGI.
Reply text: 8.75 µM

Inquiry: Specify TGI for `Cc1ccc(S(=O)(=O)ON2C(=O)c3c(N)c(C#N)c(-c4ccccc4)c(-c4ccccc4)c3C2=O)cc1` and stop.
Reply text: 44.1 µM

Inquiry: // Input: `CCOC(=O)Nc1n[nH]nc1Cl` . Output its TGI only.
Reply text: > 100 µM

Inquiry: Could you please provide reported TGI for NC(Cc1ccccc1)c1nn[nH]n1 (centres undefined) ? Thanks!
Reply text: > 100 µM

Inquiry: // Input: `COc1ccc2c(c1)-c1nc(=O)n(CCCN(C)C)c3ccc([N+](=O)[O-])c(c13)N2` . Output its TGI only.
Reply text: 31 µM

Inquiry: Fill in reported TGI for this entry: CCC(c1ccc(OC)cc1)C1NC(=S)NC1=O (centres undefined)
Reply text: > 50 µM

Inquiry: Look up and report measured TGI for this entry: `Cc1c(-c2nc(N)c(C#N)c(N)c2C#N)c(=O)oc2ccccc12`
Reply text: > 100 µM

Inquiry: Quickly give me recorded TGI for [N-]=[N+]=CC(=O)OCC1NC(=O)C(COC(=O)C=[N+]=[N-])NC1=O (centres undefined)
Reply text: > 100 µM

Inquiry: Assign TGI to the following record: CCC1c2cc3n(c(=O)c2COC1O)Cc1c-3nc2ccccc2c1Cl (centres undefined)
Reply text: > 100 µM

Inquiry: Name the recorded TGI of the item `Cc1cnc2c(c1)C(=O)N(c1ccc([N+](=O)[O-])cc1)S2(=O)=O` in your answer.
Reply text: > 100 µM

Inquiry: Note TGI for the molecule shown: `Cn1nc(-c2ccccc2)c2c(-c3ccccc3)c3cc(Cl)ccc3nc21`
Reply text: > 100 µM
